Field: solubility. Provide a value for each of the compounds that follow.
Test: solubility in water (ammonia alkali) by filter paper spot
Assay type: physicochemical
Conditions: aqueous buffer

For the compound shown here, Nc1c(N=Nc2ccc3c(O)c(N=Nc4ccc(S(=O)(=O)O)c(/N=N/c5c(C(=O)O)nn(-c6ccc(S(=O)(=O)O)cc6)c5O)c4)c(S(=O)(=O)O)cc3c2S(=O)(=O)O)cc(S(=O)(=O)O)c2cc(S(=O)(=O)O)c(N=Nc3ccc([N+](=O)[O-])cc3S(=O)(=O)O)c(O)c12 [compound 13] , give the reported solubility.
≥ 100 mg/mL

Any idea what solubility was measured for Nc1c(N=Nc2ccc3c(O)c(N=Nc4cc(S(=O)(=O)O)c(N=Nc5c(C(=O)O)nn(-c6ccc(S(=O)(=O)O)cc6)c5O)cc4S(=O)(=O)O)c(S(=O)(=O)O)cc3c2S(=O)(=O)O)cc(S(=O)(=O)O)c2cc(S(=O)(=O)O)c(N=Nc3ccc([N+](=O)[O-])cc3S(=O)(=O)O)c(O)c12 [compound 9] ?
≥ 100 mg/mL

I'd like to know its solubility. The compound in question is Nc1c(N=Nc2ccc3c(O)c(N=Nc4cc(S(=O)(=O)O)c(N=Nc5c(C(=O)O)nn(-c6ccc(S(=O)(=O)O)cc6)c5O)cc4S(=O)(=O)O)c(S(=O)(=O)O)cc3c2S(=O)(=O)O)cc(S(=O)(=O)O)c2cc(S(=O)(=O)O)c(N=Nc3ccc(S(=O)(=O)O)cc3[N+](=O)[O-])c(O)c12 [compound 23]
≥ 100 mg/mL
